test-protocol: Selectivity index, ratio of CC50 for mouse J774 cells to IC50 for promastigote stage of Leishmania infantum MHOM/BR/BH 46
Type: toxicity
assay-conditions: read-out: Ratio CC50/IC50
observable: selectivity ratio
Enter a number only.

smiles-str: O=C1c2ccccc2C(=O)N1Nc1nc(-c2ccc(Cl)cc2Cl)cs1
selectivity ratio: 12.7

Now for the compound whose selectivity ratio we want.
Query selectivity ratio for O=C1c2ccccc2C(=O)N1Nc1nc(-c2ccc3ccccc3c2)cs1
17.7

----------
test-protocol: Selectivity index, ratio of IC50 for human SK-N-SH cells to IC50 for wild type Trypanosoma brucei
Format: toxicity
assay-conditions: read-out: Ratio IC50
In this section we review reported selectivity ratio values for a set of compounds.

Consider the worked cases shown below.
compound: CCCCC(=O)Nc1ncc([N+](=O)[O-])s1
endpoint-value: > 23
--
compound: CCCC(=O)Nc1ncc([N+](=O)[O-])s1
endpoint-value: > 15

Kindly review the next compound as well.
Return value of selectivity ratio for input CC(=O)Nc1ncc([N+](=O)[O-])s1 [NITHIAMIDE] , no commentary.
> 21

----------
test-protocol: Selectivity index, ratio of cytotoxic activity for monkey LLC-MK2 cells to IC50 for trypomastigote stage of Trypanosoma cruzi Y
Type: toxicity
observable: selectivity ratio

compound: CCC1S/C(=N/N=C(/COc2ccccc2)c2ccc(Br)cc2)NC1=O (configuration not stated)
selectivity ratio: > 57.9

Kindly consider the entry below.
Give the value of selectivity ratio reported for the following: CCC1S/C(=N/N=C(/COc2ccccc2)c2ccc(-c3ccccc3)cc2)NC1=O (configuration not stated)
> 21.6

----------
test-protocol: Selectivity index, ratio of CC50 for mouse J774A1 cells to IC50 for axenic amastigote stage of Leishmania amazonensis MHOM/BR/Josefa
Format: toxicity
assay-conditions: read-out: Ratio CC50/IC50
observable: selectivity ratio
Output: the number by itself.

Give recorded selectivity ratio. CC1=CC[C@@H](C(C)(C)NC(=S)N/N=C/c2ccc([N+](=O)[O-])cc2)CC1
11.1

----------
Tested on: Leishmania panamensis
test-protocol: Anti-parasitic activity against amastigote stage of EGFP-fused Leishmania panamensis MHOM/CO/87/UA140 infected in human U-937 cells after 72 hrs by flow cytometric analysis
Format: functional, organism-based
assay-conditions: MHOM/CO/87/UA140, U-937, 72 h
observable: pEC50
In textbook form, pEC50 equals minus log to base ten of the concentration in mol/L.

compound: NC(=O)N/N=C1\CC(c2ccccc2)Sc2ccccc21 (configuration not stated)
observable: pEC50
endpoint-value: 5.27

Then this compound:
Return the recorded pEC50 value; entry: O=C(N/N=C1\CC(c2ccccc2)Sc2ccccc21)c1ccncc1 (configuration not stated)
4.79

----------
Tested on: NCI-H460
test-protocol: Cytotoxicity against human H460 cells assessed as reduction in cell viability after 72 hrs by MTT assay
Format: functional, cell-based
assay-conditions: NCI-H460, 72 h
observable: IC50
In your response, put the unit directly after the numeric value.

Supply reported IC50 belonging to this molecule: O=C(N/N=C/c1c(Cl)cccc1Cl)Nc1ccc(Oc2ccnc(-n3cnnn3)c2)c(F)c1
360 nM

----------
Test system: Leishmania infantum
test-protocol: Anti-parasitic activity against amastigote stage of Leishmania infantum MHOM/BR/BH 46 infected in macrophages after 24 hrs by Giemsa staining based method
Assay type: functional, organism-based
assay-conditions: MHOM/BR/BH 46, 24 h
Consider the following compounds and their measured pIC50 readings.
Scale: negative log10 of molar concentration, which is what pIC50 denotes.

smiles-str: O=C1c2ccccc2C(=O)N1Nc1nc(-c2ccc3ccccc3c2)cs1
pIC50: 5.28

Moving on to another compound below.
Identify the reported pIC50 for the following entry. O=C1c2ccccc2C(=O)N1Nc1nc(-c2ccc(Cl)cc2Cl)cs1
4.65

Origin of values: ChEMBL document CHEMBL4308877
